- Experimental Details: Cmax in Sprague-Dawley rat at 3 mg/kg, po administered via gavage by LC/MS analysis
- Format: ADME, organism-based
- Design: dose 3 mg/kg, route oral
- Condition Details: in vivo
Quantity Kind: Cmax

Structure Smiles String: CC#C[C@@H](CC(=O)O)c1ccc(OC[C@H]2COc3ccc(-c4ccc(OC)cc4)cc3O2)cc1
Result: 1980 ng/mL
